- assay-details: Fluorescence in buffer
- Assay type: physicochemical
- settings: excitation
endpoint-label: Fluor. λex (nm)

[
  {
    "molecule": "COc1ccc2c(c1)c(CC(=O)NCCCCNS(=O)(=O)c1cccc3c(N(C)C)cccc13)c(C)n2C(=O)c1ccc(Cl)cc1 [Compound 27z]",
    "endpoint-label": "Fluor. λex",
    "observed-result": 324
  }
]

(P) CC[N+](CC)=c1ccc2nc3c(cc(NC(=O)CCOCCOCCOCCOCCNC(=O)Cc4c(C)n(C(=O)c5ccc(Cl)cc5)c5ccc(OC)cc45)c4ccccc43)oc-2c1 [Compound 27uu]
(Q) COc1ccc2c(c1)c(CC(=O)NCCNC(=O)c1cc3ccccc3oc1=O)c(C)n2C(=O)c1ccc(Cl)cc1 [Compound 27cc]
(Q) For this pair, P and Q , which shows a numerically higher Fluor. λex? To answer, give the label that identifies your chosen option.
(A) P

* * *

Below, each entry is listed alongside its reported pIC50.
- system-tested: COX-1 (Mus musculus, UniProt P22437)
- Sequence (P22437 whole entry): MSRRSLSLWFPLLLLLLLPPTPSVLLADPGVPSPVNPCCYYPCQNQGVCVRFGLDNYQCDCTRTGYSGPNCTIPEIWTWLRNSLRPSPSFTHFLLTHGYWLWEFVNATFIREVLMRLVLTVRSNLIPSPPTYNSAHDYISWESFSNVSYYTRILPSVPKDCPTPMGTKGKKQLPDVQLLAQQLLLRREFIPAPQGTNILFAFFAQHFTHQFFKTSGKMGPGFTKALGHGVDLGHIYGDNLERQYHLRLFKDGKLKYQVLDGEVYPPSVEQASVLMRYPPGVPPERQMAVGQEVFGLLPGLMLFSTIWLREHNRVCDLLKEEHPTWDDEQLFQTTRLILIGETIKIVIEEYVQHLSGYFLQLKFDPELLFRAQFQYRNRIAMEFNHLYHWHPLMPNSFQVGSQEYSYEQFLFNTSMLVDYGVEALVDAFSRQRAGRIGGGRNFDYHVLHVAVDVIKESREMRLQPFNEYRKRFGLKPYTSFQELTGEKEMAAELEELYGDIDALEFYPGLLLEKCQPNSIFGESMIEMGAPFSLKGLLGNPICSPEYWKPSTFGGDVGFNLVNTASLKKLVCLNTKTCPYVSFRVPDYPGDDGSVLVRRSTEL
- assay-details: Macrophage assay (RAW264.7), COX-1
- Format: cell-based, murine
- settings: Table 3; macrophage assay
pIC50: −log10 of the molar value.

// worked examples, pIC50 included
[
  {
    "molecule": "COc1ccc2c(c1)c(CC(=O)NCCCCNC(=O)c1ccc(C(=O)[O-])c(C3=c4cc5c6c(c4Oc4c3cc3c7c4CCCN7CCC3)CCC[N+]=6CCC5)c1)c(C)n2C(=O)c1ccc(Cl)cc1 [Compound 27vv]",
    "observed-result": "< 5.30"
  },
  {
    "molecule": "COc1ccc2c(c1)c(CC(=O)NCCNC(=O)c1cc3ccccc3oc1=O)c(C)n2C(=O)c1ccc(Cl)cc1 [Compound 27cc]",
    "observed-result": "< 4.60"
  },
  {
    "molecule": "CCN(CC)c1ccc2c(-c3ccc(S(=O)(=O)NCCOCCOCCOCCOCCC(=O)NCCNC(=O)CCc4cc(-c5ccc(C)cc5)n(-c5ccc(S(N)(=O)=O)cc5)n4)cc3S(=O)(=O)[O-])c3ccc(=[N+](CC)CC)cc-3oc2c1 [Compound 30f]",
    "observed-result": "< 5.30"
  }
]

(Q) Assign pIC50 to the following record: CC[N+](CC)=c1ccc2c(-c3ccccc3)c(C)c(/C=C/C=C3/N(CCCCCC(=O)NCCCCNC(=O)Cc4c(C)n(C(=O)c5ccc(Cl)cc5)c5ccc(OC)cc45)c4ccc(S(=O)(=O)[O-])cc4C3(C)C)oc-2c1
(A) < 5.30

(Q) Assign pIC50 to the following record: COc1ccc2c(c1)c(CC(=O)NCCCCNC(=O)c1ccc(C3=c4cc5c6c(c4Oc4c3cc3c7c4CCCN7CCC3)CCC[N+]=6CCC5)c(C(=O)[O-])c1)c(C)n2C(=O)c1ccc(Cl)cc1
(A) < 5.30

(Q) Assign pIC50 to the following record: COc1ccc2c(c1)c(CC(=O)NCCNS(=O)(=O)c1cccc3c(N(C)C)cccc13)c(C)n2C(=O)c1ccc(Cl)cc1 [Compound 27x]
(A) < 6.00

(Q) Assign pIC50 to the following record: CC[N+](CC)=c1ccc2nc3c(cc(NC(=O)CCOCCOCCOCCOCCNC(=O)Cc4c(C)n(C(=O)c5ccc(Cl)cc5)c5ccc(OC)cc45)c4ccccc43)oc-2c1 [Compound 27uu]
(A) < 4.60

(Q) Assign pIC50 to the following record: COc1ccc2c(c1)c(CC(=O)NCCCCNC(=O)Cc1ccc(Nc3ccc([N+](=O)[O-])c4nonc34)cc1)c(C)n2C(=O)c1ccc(Cl)cc1 [Compound 27ii]
(A) < 5.00

* * *

Below, each entry is listed alongside its reported IC50.
- system-tested: COX-2 (Homo sapiens)
- Sequence (P35354 18-604): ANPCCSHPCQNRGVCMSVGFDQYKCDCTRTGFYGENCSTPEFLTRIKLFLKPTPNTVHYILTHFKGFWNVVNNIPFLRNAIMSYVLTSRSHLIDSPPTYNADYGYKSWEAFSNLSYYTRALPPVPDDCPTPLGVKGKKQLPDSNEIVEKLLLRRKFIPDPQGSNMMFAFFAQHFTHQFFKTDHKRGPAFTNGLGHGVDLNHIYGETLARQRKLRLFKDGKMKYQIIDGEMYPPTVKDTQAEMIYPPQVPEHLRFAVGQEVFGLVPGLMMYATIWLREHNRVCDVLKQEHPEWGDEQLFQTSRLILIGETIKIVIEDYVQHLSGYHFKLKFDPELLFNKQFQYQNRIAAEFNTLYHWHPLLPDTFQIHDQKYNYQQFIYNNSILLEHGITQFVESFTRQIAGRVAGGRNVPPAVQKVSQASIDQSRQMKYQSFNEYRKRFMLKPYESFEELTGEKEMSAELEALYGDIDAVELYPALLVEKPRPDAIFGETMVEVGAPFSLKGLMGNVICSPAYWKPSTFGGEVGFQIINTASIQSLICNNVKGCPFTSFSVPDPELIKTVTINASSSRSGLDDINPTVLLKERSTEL
- assay-details: IC50 determinations using purified enzymes (TLC assay), COX-2
- Type: biochemical
- Design: made in house; host or cells: Sf9 insect cells
- settings: Table 3; assayed against purified enzymes; read-out: IC50 COX-2

[
  {
    "molecule": "COc1ccc2c(c1)c(CC(=O)NCCCCNC(=O)c1ccc(C(=O)O)c(-c3c4cc(F)c(=O)cc-4oc4cc(O)c(F)cc34)c1)c(C)n2C(=O)c1ccc(Cl)cc1 [Compound 27mm]",
    "IC50": "3.2 µM"
  }
]

(Q) Assign IC50 to the following record: COc1ccc2c(c1)c(CC(=O)N1CCN(C(=O)c3ccc(C(=O)[O-])c(C4=c5cc6c7c(c5Oc5c4cc4c8c5CCCN8CCC4)CCC[N+]=7CCC6)c3)CC1)c(C)n2C(=O)c1ccc(Cl)cc1 [Compound 27fff]
(A) > 25 µM

(Q) Assign IC50 to the following record: COc1ccc2c(c1)c(CC(=O)NCCNC(=S)Nc1ccc(-c3c4ccc(=O)cc-4oc4cc(O)ccc34)c(C(=O)O)c1)c(C)n2C(=O)c1ccc(Cl)cc1 [Compound 27jj]
(A) > 25 µM

* * *

- system-tested: COX-2 (Mus musculus)
- Construct: metabolism by the newly synthesized COX-2; endogenous in cells
- Sequence (Q05769 18-604): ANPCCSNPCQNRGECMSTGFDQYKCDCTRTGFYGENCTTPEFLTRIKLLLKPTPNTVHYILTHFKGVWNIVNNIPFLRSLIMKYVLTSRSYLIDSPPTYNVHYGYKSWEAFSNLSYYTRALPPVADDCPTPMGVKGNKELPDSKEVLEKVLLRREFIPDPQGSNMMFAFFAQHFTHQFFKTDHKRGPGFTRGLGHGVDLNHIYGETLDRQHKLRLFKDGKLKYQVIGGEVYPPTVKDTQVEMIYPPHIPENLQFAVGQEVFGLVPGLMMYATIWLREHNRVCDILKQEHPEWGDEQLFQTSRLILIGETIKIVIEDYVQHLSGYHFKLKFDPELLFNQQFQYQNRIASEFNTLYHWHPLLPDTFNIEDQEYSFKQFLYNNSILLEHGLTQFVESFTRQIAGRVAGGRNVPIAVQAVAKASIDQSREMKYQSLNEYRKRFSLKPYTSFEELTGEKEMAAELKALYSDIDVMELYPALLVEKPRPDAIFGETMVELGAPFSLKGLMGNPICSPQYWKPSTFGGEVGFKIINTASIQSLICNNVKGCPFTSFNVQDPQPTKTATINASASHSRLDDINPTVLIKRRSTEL
- assay-details: Macrophage assay (RAW264.7), COX-2
- Assay type: cell-based, murine
- settings: read-out: IC50 in RAW 264.7 cells
endpoint-label: pIC50
Hey, just a heads up that pIC50 is the negative log base 10 of the concentration in molar.

(Q) Assign pIC50 to the following record: COc1ccc2c(c1)c(CC(=O)NCCCCNC(=O)c1ccc(C3=c4cc5c6c(c4Oc4c3cc3c7c4CCCN7CCC3)CCC[N+]=6CCC5)c(C(=O)[O-])c1)c(C)n2C(=O)c1ccc(Cl)cc1 [Compound 27eee]
(A) 6.49

* * *

- assay-details: Fluorescence in buffer
- Format: physicochemical
- settings: emission
endpoint-label: Fluor. λem (nm)

// worked examples, Fluor. λem included
[
  {
    "molecule": "COc1ccc2c(c1)c(CC(=O)NCCCCNS(=O)(=O)c1cccc3c(N(C)C)cccc13)c(C)n2C(=O)c1ccc(Cl)cc1 [Compound 27z]",
    "observed-result": 504
  },
  {
    "molecule": "COc1ccc2c(c1)c(CC(=O)NCCCNS(=O)(=O)c1cccc3c(N(C)C)cccc13)c(C)n2C(=O)c1ccc(Cl)cc1 [Compound 27y]",
    "observed-result": 497
  }
]

(A) COc1ccc2c(c1)c(CC(=O)NCCNS(=O)(=O)c1ccc(/N=N/c3ccc(N(C)C)cc3)cc1)c(C)n2C(=O)c1ccc(Cl)cc1 [Compound 27aa]
(B) CC[N+](CC)=c1ccc2nc3c(cc(NC(=O)CCOCCOCCOCCOCCNC(=O)Cc4c(C)n(C(=O)c5ccc(Cl)cc5)c5ccc(OC)cc45)c4ccccc43)oc-2c1 [Compound 27uu]
(Q) Sorting ascending by Fluor. λem, which comes first: A or B ? To answer, give the label that identifies your chosen option.
(A) A
(A: 450 nm, B: 670 nm)

* * *

- system-tested: COX-2 (Mus musculus)
- Construct: metabolism by the newly synthesized COX-2; endogenous in cells
- assay-details: Macrophage assay (RAW264.7), COX-2
- Format: cell-based, murine
- settings: Table 2; macrophage assay (M); read-out: IC50 COX-2
endpoint-label: IC50 (M)

(a) COC(=O)c1cc(-c2ccc(C)cc2)n(-c2ccc(S(N)(=O)=O)cc2)n1 [Compound 30b]
(b) Cc1ccc(-c2cc(CCC(=O)O)nn2-c2ccc(S(N)(=O)=O)cc2)cc1 [Compound 30c]
(Q) Sorting ascending by IC50, which comes first: a or b ? To answer, give the label that identifies your chosen option.
(A) a
(a: 1.1e-07 M, b: 1.4e-06 M)

* * *

- system-tested: ovine COX-1 (Ovis aries, UniProt P05979)
- Construct: can be purified from ovine seminal vesicles by standard procedures; from tissue; host or cells: ovine seminal vesicles
- Sequence (P05979 25-600): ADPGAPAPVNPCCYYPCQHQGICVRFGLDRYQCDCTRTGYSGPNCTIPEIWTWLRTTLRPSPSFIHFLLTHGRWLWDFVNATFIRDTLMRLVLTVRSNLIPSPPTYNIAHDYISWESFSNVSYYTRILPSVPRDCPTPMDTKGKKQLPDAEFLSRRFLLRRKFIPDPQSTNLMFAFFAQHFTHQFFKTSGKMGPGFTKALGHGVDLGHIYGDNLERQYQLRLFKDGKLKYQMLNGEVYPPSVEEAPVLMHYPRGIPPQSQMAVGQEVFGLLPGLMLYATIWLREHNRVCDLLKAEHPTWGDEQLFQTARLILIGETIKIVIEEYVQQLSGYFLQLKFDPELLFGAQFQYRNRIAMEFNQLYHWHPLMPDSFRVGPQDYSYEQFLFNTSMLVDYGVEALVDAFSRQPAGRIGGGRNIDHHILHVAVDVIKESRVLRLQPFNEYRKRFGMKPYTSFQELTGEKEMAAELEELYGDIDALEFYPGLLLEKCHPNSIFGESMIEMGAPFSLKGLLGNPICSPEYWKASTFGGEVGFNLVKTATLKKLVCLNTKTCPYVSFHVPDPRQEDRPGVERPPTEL
- assay-details: IC50 determinations using purified enzymes (TLC assay), COX-1
- Assay type: biochemical
- settings: Table 3; assayed against purified enzymes
endpoint-label: IC50

// worked examples, IC50 included
[
  {
    "compound": "COc1ccc2c(c1)c(CC(=O)NCCCCNC(=O)Cc1ccc(Nc3ccc([N+](=O)[O-])c4nonc34)cc1)c(C)n2C(=O)c1ccc(Cl)cc1 [Compound 27ii]",
    "endpoint-label": "IC50",
    "observed-result": "> 25 µM"
  },
  {
    "compound": "COc1ccc2c(c1)c(CC(=O)NCCNS(=O)(=O)c1ccc(/N=N/c3ccc(N(C)C)cc3)cc1)c(C)n2C(=O)c1ccc(Cl)cc1 [Compound 27aa]",
    "endpoint-label": "IC50",
    "observed-result": "> 25 µM"
  },
  {
    "compound": "CC[N+](CC)=c1ccc2c(-c3ccccc3)c(C)c(/C=C/C=C3/N(CCCCCC(=O)NCCCCNC(=O)Cc4c(C)n(C(=O)c5ccc(Cl)cc5)c5ccc(OC)cc45)c4ccc(S(=O)(=O)[O-])cc4C3(C)C)oc-2c1 [Compound 27ttt]",
    "endpoint-label": "IC50",
    "observed-result": "> 25 µM"
  },
  {
    "compound": "COc1ccc2c(c1)c(CC(=O)NCCCN1CCN(CCCNC(=O)c3ccc(C(=O)[O-])c(C4=c5cc6c7c(c5Oc5c4cc4c8c5CCCN8CCC4)CCC[N+]=7CCC6)c3)CC1)c(C)n2C(=O)c1ccc(Cl)cc1 [Compound 27bbb]",
    "endpoint-label": "IC50",
    "observed-result": "> 25 µM"
  },
  {
    "compound": "COc1ccc2c(c1)c(CC(=O)NCCCNS(=O)(=O)c1cccc3c(N(C)C)cccc13)c(C)n2C(=O)c1ccc(Cl)cc1 [Compound 27y]",
    "endpoint-label": "IC50",
    "observed-result": "> 25 µM"
  }
]

(Q) Assign IC50 to the following record: COc1ccc2c(c1)c(CC(=O)NCCCNS(=O)(=O)c1ccc(/N=N/c3ccc(N(C)C)cc3)cc1)c(C)n2C(=O)c1ccc(Cl)cc1 [Compound 27bb]
(A) 0.214 µM

(Q) Assign IC50 to the following record: CC[N+](CC)=c1ccc2nc3c(cc(NC(=O)CCc4cc(-c5ccc(C)cc5)n(-c5ccc(S(C)(=O)=O)cc5)n4)c4ccccc43)oc-2c1 [Compound 29g]
(A) > 25 µM

(Q) Assign IC50 to the following record: COc1ccc2c(c1)c(CC(=O)NCCCCNC(=O)c1ccc(C(=O)O)c(-c3c4cc(F)c(=O)cc-4oc4cc(O)c(F)cc34)c1)c(C)n2C(=O)c1ccc(Cl)cc1 [Compound 27mm]
(A) 22.5 µM

(Q) Assign IC50 to the following record: CCN(CC)c1ccc2c(-c3ccc(S(=O)(=O)NCCOCCOCCOCCOCCC(=O)NCCCCNC(=O)Cc4c(C)n(C(=O)c5ccc(Cl)cc5)c5ccc(OC)cc45)cc3S(=O)(=O)[O-])c3ccc(=[N+](CC)CC)cc-3oc2c1 [Compound 27iii]
(A) > 25 µM

(Q) Assign IC50 to the following record: COc1ccc2c(c1)c(CC(=O)NCCNC(=O)c1ccc(C3=c4cc5c6c(c4Oc4c3cc3c7c4CCCN7CCC3)CCC[N+]=6CCC5)c(C(=O)[O-])c1)c(C)n2C(=O)c1ccc(Cl)cc1 [Compound 27ggg]
(A) 0.5 µM
